- measuredTarget: T1, Interleukin 10 receptor alpha chain, Fc fusion (human, UniProt Q13651 22-235)
- T1 sequence: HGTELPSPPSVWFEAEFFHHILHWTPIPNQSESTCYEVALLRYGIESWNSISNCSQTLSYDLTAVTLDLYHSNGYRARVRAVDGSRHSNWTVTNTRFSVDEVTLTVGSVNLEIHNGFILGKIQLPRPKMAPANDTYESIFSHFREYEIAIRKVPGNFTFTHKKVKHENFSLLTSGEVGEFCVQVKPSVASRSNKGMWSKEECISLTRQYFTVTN
- assayProtocol: double filter binding; text: mutant with highest change in affinity; Fig 3D legend gives that to Mutant 2; Binding buffer (composition and pH not given), 37 C, 5' 32P RNA with a range of protein concentrations, nitrocellulose/nylon double filter; Kd = protein concent
testReadout: pKd
Scale: negative log10 of molar concentration, which is what pKd denotes.

Sample cluster 1 Mutant 1 (ssRNA, DuraScribe IVT transcript (2'-F pyrimidines implied by the kit, not stated)) RNA: GGGAGAGAGGAAGAGGGAUGGGUAACACUCGAUUCUCCUAGCCCUCUAGAAAUUCCCCUCCCCGACGACUCGCUGAGAUCGAGA ; pKd observed: 7.57
